target: bacterial PDF (peptide deformylase), enzyme from E. coli (Escherichia coli); experiment: Bacterial peptide deformylase (PDF) assay, enzyme from E. coli; assay type: biochemical
Sequence (P0A6K3 whole entry): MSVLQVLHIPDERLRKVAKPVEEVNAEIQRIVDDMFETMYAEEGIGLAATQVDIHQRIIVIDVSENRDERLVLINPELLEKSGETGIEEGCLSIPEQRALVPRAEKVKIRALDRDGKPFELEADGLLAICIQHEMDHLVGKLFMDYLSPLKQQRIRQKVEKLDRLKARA
PROPERTY: IC50 (µM)

O=C(CC1CN(CC2CCCC2)c2ccccc2S1(=O)=O)NO (stereo not drawn) [Example 37] | 11.1
CCN1CC(CC(=O)NO)S(=O)(=O)c2ccc(C(=O)NCc3ccccc3F)cc21 (stereo not drawn) [Example 12] | 10.8
CCCCN1CC(CC(=O)NO)S(=O)(=O)c2ccccc21 (stereo not drawn) [Example 8] | 8.8
